# target_or_test_system: T1, MUC1 on HCT116/MUC1 cells (UniProt P15941 24-1255, limits assumed)
# T1 construct: whole, on cells; also called MUC1 overexpressed cell line
# T1 sequence (P15941 24-1255 limits assumed): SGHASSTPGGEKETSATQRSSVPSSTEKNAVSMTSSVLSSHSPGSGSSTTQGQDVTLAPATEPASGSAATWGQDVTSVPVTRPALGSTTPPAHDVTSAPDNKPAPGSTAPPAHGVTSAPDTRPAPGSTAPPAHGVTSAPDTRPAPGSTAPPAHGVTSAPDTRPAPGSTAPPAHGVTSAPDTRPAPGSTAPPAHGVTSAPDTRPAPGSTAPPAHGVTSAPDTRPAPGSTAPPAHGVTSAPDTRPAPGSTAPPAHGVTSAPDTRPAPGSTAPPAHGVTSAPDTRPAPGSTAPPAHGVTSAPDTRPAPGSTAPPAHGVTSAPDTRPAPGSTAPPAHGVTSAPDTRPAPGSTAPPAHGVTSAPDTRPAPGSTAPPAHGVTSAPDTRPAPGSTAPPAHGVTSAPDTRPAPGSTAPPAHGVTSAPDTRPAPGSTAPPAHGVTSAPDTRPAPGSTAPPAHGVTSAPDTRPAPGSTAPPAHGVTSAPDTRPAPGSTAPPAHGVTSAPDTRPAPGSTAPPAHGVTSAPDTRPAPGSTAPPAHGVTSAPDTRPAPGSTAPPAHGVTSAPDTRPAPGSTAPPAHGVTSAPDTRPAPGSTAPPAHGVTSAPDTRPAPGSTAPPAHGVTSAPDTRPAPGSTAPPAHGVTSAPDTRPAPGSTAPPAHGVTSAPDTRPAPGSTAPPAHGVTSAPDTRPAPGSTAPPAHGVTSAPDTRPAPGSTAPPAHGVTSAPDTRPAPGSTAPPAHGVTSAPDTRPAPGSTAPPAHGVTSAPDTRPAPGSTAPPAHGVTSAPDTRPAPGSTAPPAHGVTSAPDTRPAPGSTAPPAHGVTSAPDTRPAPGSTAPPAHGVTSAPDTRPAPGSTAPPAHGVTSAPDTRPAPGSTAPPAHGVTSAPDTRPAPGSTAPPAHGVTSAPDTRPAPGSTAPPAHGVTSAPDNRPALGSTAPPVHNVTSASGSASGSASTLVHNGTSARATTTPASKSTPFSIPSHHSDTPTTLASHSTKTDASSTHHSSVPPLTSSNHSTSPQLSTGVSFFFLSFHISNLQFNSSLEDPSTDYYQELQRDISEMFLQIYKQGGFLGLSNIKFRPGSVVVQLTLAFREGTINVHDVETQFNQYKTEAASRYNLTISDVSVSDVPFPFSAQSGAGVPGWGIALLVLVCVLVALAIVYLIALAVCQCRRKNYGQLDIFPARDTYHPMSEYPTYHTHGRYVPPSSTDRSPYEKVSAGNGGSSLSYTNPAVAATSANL
# test_summary: FACS titration, HCT116/MUC1 cells, antibody at 7.812 nM
measured_quantity: geometric mean
Note: the reply should be a number with no unit written.

Answered examples (2):
| binder | measured_quantity | measurement |
| --- | --- | --- |
| VH3 + VL3 (antibody, V domains shown, Humanized IgG expressed in HEK293; also called humanized antibody VH3+VL3) VH: QVQLVQSGAEVKKPGASVKVSCKASGYAFSNFWMNWVRQAPGQGLEWMGQIYPGDGDTNYNGKFKGRVTMTRDTSISTAYMELSRLRSDDTAVYYCARSYYRSAWFAYWGQGTLVTVSS VL: EIVLTQSPATLSLSPGERATLSCRASQSIGTSIHWYQQKPGQAPRLLIYYASESISGIPARFSGSGSGTDFTLTISSLEPEDFAVYYCQQSNNWPLTFGGGTKVEIK | geometric mean | 7.91 |
| VH3 + VL1 (antibody, V domains shown, Humanized IgG expressed in HEK293; also called humanized antibody VH3+VL1) VH: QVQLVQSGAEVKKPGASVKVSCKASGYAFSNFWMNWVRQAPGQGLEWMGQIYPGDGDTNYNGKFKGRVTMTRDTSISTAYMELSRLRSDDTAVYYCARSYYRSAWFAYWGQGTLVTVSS VL: EIVLTQSPDFQSVTPKEKVTITCRASQSIGTSIHWYQQKPDQSPKLLIKYASESISGVPSRFSGSGSGTDFTLTINSLEAEDAATYYCQQSNNWPLTFGQGTKVEIK | geometric mean | 36 |

Turning now to a further record.
What does the record list as geometric mean for VH1 + VL4 (antibody, V domains shown, Humanized IgG expressed in HEK293; also called humanized antibody VH1+VL4) VH: QVQLVQSGAEVKKPGSSVKVSCKASGYAFSNFWMNWVRQAPGQGLEWMGQIYPGDGDTNYNGKFKGRVTITADKSTSTAYMELSSLRSEDTAVYYCARSYYRSAWFAYWGQGTLVTVSS VL: AIQLTQSPSSLSASVGDRVTITCRASQSIGTSIHWYQQKPGKAPKLLIYYASESISGVPSRFSGSGSGTDFTLTISSLQPEDFATYYCQQSNNWPLTFGGGTKVEIK ?
6.83
